assay details: in vivo
Set-up: species or system BALB/c nude mice
condition details: female, BALB/c nude, mouse, iv, 3.7 MBq, total radioactivity, Tumor-to-Brain ratio (T/B)
Numbered stars: 1 amine (or outer) side, 2 acyl side, 3 side chain; on linkers, the order of the positions; unused ones are H or OH. Square brackets hold non-standard residues; d marks the D form. Peptide text beside a SMILES is read from it. * marks the point of attachment. DOTA = O=C(O)CN1CCN(CC(=O)O)CCN(CC(=O)*)CCN(CC(=O)O)CC1; d(γGlu) = O=C(O)[C@@H](CCC(=O)[*:2])N[*:1]; 1Nal = N[C@@H](Cc1cccc2ccccc12)C(=O)O; NMeNle = CCCC[C@H](NC)C(=O)O; PEG4 = NCCOCCOCCOCCOCCC(=O)O
quantity name: tissue to tissue ratio at 2 h
Please give the numeric answer without any surrounding text.

Query: tissue to tissue ratio at 2 h lookup needed for CCCC[C@@H](C(=O)N[C@@H](CC(=O)O)C(=O)N[C@@H](Cc1cccc2ccccc12)C(N)=O)N(C)C(=O)[C@H](Cc1c[nH]c2ccccc12)NC(=O)CCOCCOCCOCCOCCNC(=O)CC[C@@H](NC(=O)CN1CCN(CC(=O)O)CCN(CC(=O)O)CCN(CC(=O)O)CC1)C(=O)O [[68Ga]Ga-DOTA-CCK-66, metal not drawn, reference compound] ({DOTA-d(γGlu)-PEG4}-W[NMeNle]D[1Nal]-NH2) , thanks.
Reply: 141

---

assay details: in vivo
Design: species or system BALB/c nude mice
condition details: female, BALB/c nude, mouse, iv, 3.7 MBq, total radioactivity, Tumor-to-Brain ratio (T/B)
Numbered stars: 1 amine (or outer) side, 2 acyl side, 3 side chain; on linkers, the order of the positions; unused ones are H or OH. Square brackets hold non-standard residues; d marks the D form. Peptide text beside a SMILES is read from it. * marks the point of attachment. DOTA = O=C(O)CN1CCN(CC(=O)O)CCN(CC(=O)*)CCN(CC(=O)O)CC1; d(γGlu) = O=C(O)[C@@H](CCC(=O)[*:2])N[*:1]; 1Nal = N[C@@H](Cc1cccc2ccccc12)C(=O)O; NMeNle = CCCC[C@H](NC)C(=O)O; PEG4 = NCCOCCOCCOCCOCCC(=O)O
quantity name: tissue to tissue ratio at 1 h
Please give the numeric answer without any surrounding text.

Query: tissue to tissue ratio at 1 h lookup needed for CCCC[C@@H](C(=O)N[C@@H](CC(=O)O)C(=O)N[C@@H](Cc1cccc2ccccc12)C(N)=O)N(C)C(=O)[C@H](Cc1c[nH]c2ccccc12)NC(=O)CCOCCOCCOCCOCCNC(=O)CC[C@@H](NC(=O)CN1CCN(CC(=O)O)CCN(CC(=O)O)CCN(CC(=O)O)CC1)C(=O)O [[68Ga]Ga-DOTA-CCK-66, metal not drawn, reference compound] ({DOTA-d(γGlu)-PEG4}-W[NMeNle]D[1Nal]-NH2) , thanks.
Reply: 91.4

---

assay details: in vivo
Set-up: species or system BALB/c nude mice
condition details: female, BALB/c nude, mouse, iv, 3.7 MBq, total radioactivity, Tumor-to-Small intestine ratio (T/B)
Numbered stars: 1 amine (or outer) side, 2 acyl side, 3 side chain; on linkers, the order of the positions; unused ones are H or OH. Square brackets hold non-standard residues; d marks the D form. Peptide text beside a SMILES is read from it. * marks the point of attachment. DOTA = O=C(O)CN1CCN(CC(=O)O)CCN(CC(=O)*)CCN(CC(=O)O)CC1; d(γGlu) = O=C(O)[C@@H](CCC(=O)[*:2])N[*:1]; 1Nal = N[C@@H](Cc1cccc2ccccc12)C(=O)O; NMeNle = CCCC[C@H](NC)C(=O)O; PEG4 = NCCOCCOCCOCCOCCC(=O)O
quantity name: tissue to tissue ratio at 1 h
Please give the numeric answer without any surrounding text.

Query: tissue to tissue ratio at 1 h lookup needed for CCCC[C@@H](C(=O)N[C@@H](CC(=O)O)C(=O)N[C@@H](Cc1cccc2ccccc12)C(N)=O)N(C)C(=O)[C@H](Cc1c[nH]c2ccccc12)NC(=O)CCOCCOCCOCCOCCNC(=O)CC[C@@H](NC(=O)CN1CCN(CC(=O)O)CCN(CC(=O)O)CCN(CC(=O)O)CC1)C(=O)O [[68Ga]Ga-DOTA-CCK-66, metal not drawn, reference compound] ({DOTA-d(γGlu)-PEG4}-W[NMeNle]D[1Nal]-NH2) , thanks.
Reply: 7.43

---

assay details: in vivo
Set-up: species or system BALB/c nude mice
condition details: mouse, Lung uptake
Numbered stars: 1 amine (or outer) side, 2 acyl side, 3 side chain; on linkers, the order of the positions; unused ones are H or OH. Square brackets hold non-standard residues; d marks the D form. Peptide text beside a SMILES is read from it. * marks the point of attachment. DOTA = O=C(O)CN1CCN(CC(=O)O)CCN(CC(=O)*)CCN(CC(=O)O)CC1; d(γGlu) = O=C(O)[C@@H](CCC(=O)[*:2])N[*:1]; 1Nal = N[C@@H](Cc1cccc2ccccc12)C(=O)O; NMeNle = CCCC[C@H](NC)C(=O)O; PEG4 = NCCOCCOCCOCCOCCC(=O)O
quantity name: tissue uptake at 0.5 h (%ID/g)
// units = %ID/g; emit number, no label

Query: tissue uptake at 0.5 h lookup needed for CCCC[C@@H](C(=O)N[C@@H](CC(=O)O)C(=O)N[C@@H](Cc1cccc2ccccc12)C(N)=O)N(C)C(=O)[C@H](Cc1c[nH]c2ccccc12)NC(=O)CCOCCOCCOCCOCCNC(=O)CC[C@@H](NC(=O)CN1CCN(CC(=O)O)CCN(CC(=O)O)CCN(CC(=O)O)CC1)C(=O)O [[68Ga]Ga-DOTA-CCK-66, metal not drawn, reference compound] ({DOTA-d(γGlu)-PEG4}-W[NMeNle]D[1Nal]-NH2) , thanks.
Reply: 0.95

---

assay details: in vivo
Design: species or system BALB/c nude mice
condition details: mouse, Brain uptake
Numbered stars: 1 amine (or outer) side, 2 acyl side, 3 side chain; on linkers, the order of the positions; unused ones are H or OH. Square brackets hold non-standard residues; d marks the D form. Peptide text beside a SMILES is read from it. * marks the point of attachment. DOTA = O=C(O)CN1CCN(CC(=O)O)CCN(CC(=O)*)CCN(CC(=O)O)CC1; d(γGlu) = O=C(O)[C@@H](CCC(=O)[*:2])N[*:1]; 1Nal = N[C@@H](Cc1cccc2ccccc12)C(=O)O; NMeNle = CCCC[C@H](NC)C(=O)O; PEG4 = NCCOCCOCCOCCOCCC(=O)O
quantity name: tissue uptake at 0.5 h (%ID/g)
// units = %ID/g; emit number, no label

Query: tissue uptake at 0.5 h lookup needed for CCCC[C@@H](C(=O)N[C@@H](CC(=O)O)C(=O)N[C@@H](Cc1cccc2ccccc12)C(N)=O)N(C)C(=O)[C@H](Cc1c[nH]c2ccccc12)NC(=O)CCOCCOCCOCCOCCNC(=O)CC[C@@H](NC(=O)CN1CCN(CC(=O)O)CCN(CC(=O)O)CCN(CC(=O)O)CC1)C(=O)O [[68Ga]Ga-DOTA-CCK-66, metal not drawn, reference compound] ({DOTA-d(γGlu)-PEG4}-W[NMeNle]D[1Nal]-NH2) , thanks.
Reply: 0.03

---

assay details: in vivo
Parameters: species or system BALB/c nude mice
condition details: female, BALB/c nude, mouse, iv, 3.7 MBq, total radioactivity, Tumor-to-Kidney ratio (T/B)
Numbered stars: 1 amine (or outer) side, 2 acyl side, 3 side chain; on linkers, the order of the positions; unused ones are H or OH. Square brackets hold non-standard residues; d marks the D form. Peptide text beside a SMILES is read from it. * marks the point of attachment. DOTA = O=C(O)CN1CCN(CC(=O)O)CCN(CC(=O)*)CCN(CC(=O)O)CC1; d(γGlu) = O=C(O)[C@@H](CCC(=O)[*:2])N[*:1]; 1Nal = N[C@@H](Cc1cccc2ccccc12)C(=O)O; NMeNle = CCCC[C@H](NC)C(=O)O; PEG4 = NCCOCCOCCOCCOCCC(=O)O
quantity name: tissue to tissue ratio at 1 h
Please give the numeric answer without any surrounding text.

Query: tissue to tissue ratio at 1 h lookup needed for CCCC[C@@H](C(=O)N[C@@H](CC(=O)O)C(=O)N[C@@H](Cc1cccc2ccccc12)C(N)=O)N(C)C(=O)[C@H](Cc1c[nH]c2ccccc12)NC(=O)CCOCCOCCOCCOCCNC(=O)CC[C@@H](NC(=O)CN1CCN(CC(=O)O)CCN(CC(=O)O)CCN(CC(=O)O)CC1)C(=O)O [[68Ga]Ga-DOTA-CCK-66, metal not drawn, reference compound] ({DOTA-d(γGlu)-PEG4}-W[NMeNle]D[1Nal]-NH2) , thanks.
Reply: 1.1

---

assay details: in vivo
Parameters: species or system BALB/c nude mice
condition details: female, BALB/c nude, mouse, iv, 3.7 MBq, total radioactivity
Procedure: For the micro-positron emission tomography/computed tomography (microPET/CT) imaging study, BALB/c nude mice bearing AR42J tumors (detailed in Supplementary Methods Section S3: Mouse Models) were intravenously injected with 3.7 MBq of [^68Ga]Ga-DOTA-CCK2R-dimer (≈ 120 pmol) or [^68Ga]Ga-DOTA-CCK-66 (≈ 210 pmol) (dissolved in 200 μL of saline; n = 3/group), and microPET/CT imaging was performed at 30, 60, and 120 min post-injection. […]
Numbered stars: 1 amine (or outer) side, 2 acyl side, 3 side chain; on linkers, the order of the positions; unused ones are H or OH. Square brackets hold non-standard residues; d marks the D form. Peptide text beside a SMILES is read from it. * marks the point of attachment. DOTA = O=C(O)CN1CCN(CC(=O)O)CCN(CC(=O)*)CCN(CC(=O)O)CC1; d(γGlu) = O=C(O)[C@@H](CCC(=O)[*:2])N[*:1]; 1Nal = N[C@@H](Cc1cccc2ccccc12)C(=O)O; NMeNle = CCCC[C@H](NC)C(=O)O; PEG4 = NCCOCCOCCOCCOCCC(=O)O
quantity name: tissue uptake at 1 h (%ID/g)
// units = %ID/g; emit number, no label

Query: tissue uptake at 1 h lookup needed for CCCC[C@@H](C(=O)N[C@@H](CC(=O)O)C(=O)N[C@@H](Cc1cccc2ccccc12)C(N)=O)N(C)C(=O)[C@H](Cc1c[nH]c2ccccc12)NC(=O)CCOCCOCCOCCOCCNC(=O)CC[C@@H](NC(=O)CN1CCN(CC(=O)O)CCN(CC(=O)O)CCN(CC(=O)O)CC1)C(=O)O [[68Ga]Ga-DOTA-CCK-66, metal not drawn, reference compound] ({DOTA-d(γGlu)-PEG4}-W[NMeNle]D[1Nal]-NH2) , thanks.
Reply: 19.5
